Measured Ratio over Background, listed per entry.
Target: T1, Soluble IGF-1R (sIGF-1R), R&D Systems Cat. # 391-GR/CF (UniProt P08069 31-935, limits assumed)
T1 construct: extracellular domain
Assay: phage ELISA
Respond using a number only.

Here is how some binders turned out for Ratio over Background.
Q. Entry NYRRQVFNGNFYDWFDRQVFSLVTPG [H2CA-3-D8-IGFR] needs its Ratio over Background filled in; supply it.
A. 7.2

Q. Entry RAGSSDFHEDFYEWFVRQVSLSLKGK [H2CA-2-B9-IGFR] needs its Ratio over Background filled in; supply it.
A. 7

Q. Entry VGYQGQGDENFYDWFIRQVSGRLGVQ [H2CA-4-F5-IGFR] needs its Ratio over Background filled in; supply it.
A. 9.7

Q. Entry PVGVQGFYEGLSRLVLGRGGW [20E2B-4-F8-IGFR] needs its Ratio over Background filled in; supply it.
A. 7.3

Q. Entry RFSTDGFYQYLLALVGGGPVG [20E2B-1-A11-IGFR] needs its Ratio over Background filled in; supply it.
A. 9.5

Q. Entry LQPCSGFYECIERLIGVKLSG [20E2Bβ-4-G7-IR] needs its Ratio over Background filled in; supply it.
A. 25.2

# evaluate next
Q. Entry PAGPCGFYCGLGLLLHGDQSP [20E2B-4-H8-IGFR] needs its Ratio over Background filled in; supply it.
A. 5.3

Where do the numbers come from? From patent US20070265189A1.
